Each recorded value in this set is attributed to the RNAGym collection of RNA variant scans (doi:10.7554/elife.90254).

B1: LINE1-full (parent)
chain: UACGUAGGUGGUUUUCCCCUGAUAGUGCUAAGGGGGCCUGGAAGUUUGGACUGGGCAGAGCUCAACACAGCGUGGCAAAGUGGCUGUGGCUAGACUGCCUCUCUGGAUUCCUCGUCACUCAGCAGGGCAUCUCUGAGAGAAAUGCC

Variants of: B1
Experiment: self-cleavage, relative activity (ratio to wild type); higher = more cleavage; in vitro, sequencing; the parent is a self-cleaving ribozyme
PARAMETER MEASURED: self-cleavage
The answer should be written as a number, with no unit following it.

Example cases with answers are listed next.
G74A A140G | 1.22
U46C A92G | 0.29
U20A C99A | 0.74
G41U U100C | 1.28
A43G C146A | 1.09
U13C C123A | 1.42
U96C G127U | 0.19
U23G C90G | 0.03

*Q* So what does the record say about self-cleavage for U9C U119C ?
*A* 1.36

*Q* Next record, please: C76U U130C
*A* 2.22
